The values you see were collected from patent US7355079B2.

Target: mouse TAR-1 (Mus musculus, UniProt Q923Y8)
Construct: expressed in transfected cells
Sequence (Q923Y8 whole entry): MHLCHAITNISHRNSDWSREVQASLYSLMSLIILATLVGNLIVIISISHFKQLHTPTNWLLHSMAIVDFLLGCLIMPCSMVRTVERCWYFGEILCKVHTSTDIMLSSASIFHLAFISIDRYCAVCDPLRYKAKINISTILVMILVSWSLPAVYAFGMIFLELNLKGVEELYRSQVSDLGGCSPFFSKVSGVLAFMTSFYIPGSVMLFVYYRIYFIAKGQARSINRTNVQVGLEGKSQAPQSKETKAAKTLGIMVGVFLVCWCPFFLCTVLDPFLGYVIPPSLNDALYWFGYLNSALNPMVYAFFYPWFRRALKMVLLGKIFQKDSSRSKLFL
Assay: cAMP assay, activation of mouse TAR-1
Assay type: cell-based
Structures can show the parent of a compound that is named as a salt.
Provide the reported EC50 of each item.

molecule | valueKind | obsValue
NCCc1ccc(Oc2ccccc2)cc1 [Compound 31, O-phenyl-tyramine Hydrochloride] | EC50 | ≤ 500 nM
NCCc1ccc(Oc2ccccc2)c2ccccc12 | EC50 | ≤ 500 nM
NCCc1ccc(OCCCc2ccccc2)cc1 [Compound 69, Hydrochloride] | EC50 | ≤ 500 nM

Dear colleague, could you send me EC50 for each of the items below? Thanks.
1. CCCCNCCc1ccc(OCc2ccccc2)cc1 [Compound 55, N-butyl-O-benzyl Tyramine Hydrochloride]
2. CCNCCc1ccc(OCc2ccccc2)cc1 [Compound 53, N-ethyl-O-benzyl Tyramine Hydrochloride]
3. NCCc1ccc(OCc2ccccc2)c(I)c1 [Compound 39, O-benzyl-3-iodotyramine Hydrochloride]
4. Cc1cc(C)cc(COc2ccc(CCN)cc2)c1 [Compound 44, Hydrochloride]
5. NCCc1ccc(OCCc2ccccc2)cc1 [Compound 40, O-(2-phenyl)ethyl Tyramine Hydrochloride]

1. ≥ 1000 nM
2. ≥ 1000 nM
3. ≤ 500 nM
4. ≤ 500 nM
5. ≤ 500 nM
